Test system: Plasmodium falciparum
experimental-protocol: Antiparasitic activity against chloroquine-resistant Plasmodium falciparum W2
Format: functional, organism-based
experimental-context: Plasmodium falciparum
Exam item: assign criterion met to entries whose EC50 is below 7 µM and criterion not met to entries at or above 7 µM. Note that a value of exactly 7 µM receives criterion not met.

// known answers, use as guide
INSERT INTO measurements (input_smiles, answer_label) VALUES
  ('COc1ccc(CN(CCCN)Cc2ccc(OC)cc2)cc1.O=C(O)C(F)(F)F', 'criterion not met'),
  ('NCCCCN(Cc1ccccc1)Cc1ccc(OCc2ccccc2)cc1', 'criterion not met'),
  ('CCCCOc1ccc(CN(CCCN)Cc2ccc(OCCCC)cc2)cc1', 'criterion met');

Is EC50 strictly under 7 µM for the entry `NCCCN(Cc1ccc(Cl)cc1)Cc1ccc(Cl)cc1.O=C(O)C(F)(F)F` ?
criterion not met

Is EC50 strictly under 7 µM for the entry `NCCCN(Cc1ccc(OCc2c(F)c(F)c(F)c(F)c2F)cc1)Cc1ccc(OCc2c(F)c(F)c(F)c(F)c2F)cc1` ?
criterion met

Is EC50 strictly under 7 µM for the entry `NCCCN(Cc1ccccc1)Cc1ccc(Cl)cc1.O=C(O)C(F)(F)F` ?
criterion not met

Is EC50 strictly under 7 µM for the entry `COc1ccc(CN(CCCCN)Cc2ccc(OC)cc2)cc1.O=C(O)C(F)(F)F` ?
criterion met

Is EC50 strictly under 7 µM for the entry `CC(C)c1ccc(CN(CCCN)Cc2ccc(C(C)C)cc2)cc1.O=C(O)C(F)(F)F` ?
criterion not met

Is EC50 strictly under 7 µM for the entry `COc1ccc(CN(CCCCN)Cc2ccccc2)cc1OC.O=C(O)C(F)(F)F` ?
criterion met

Is EC50 strictly under 7 µM for the entry `NCCCN(Cc1ccccc1)Cc1ccc(OCc2ccccc2)cc1` ?
criterion met

Is EC50 strictly under 7 µM for the entry `NCCCCN(Cc1ccc(OCc2c(F)c(F)c(F)c(F)c2F)cc1)Cc1ccc(OCc2c(F)c(F)c(F)c(F)c2F)cc1` ?
criterion met

Is EC50 strictly under 7 µM for the entry `COc1cc(CN(CCCN)Cc2ccc(OCc3ccccc3)c(OC)c2)ccc1OCc1ccccc1` ?
criterion met

Is EC50 strictly under 7 µM for the entry `COc1cc(CN(CCCCN)Cc2ccc(OCc3ccccc3)c(OC)c2)ccc1OCc1ccccc1` ?
criterion met

Is EC50 strictly under 7 µM for the entry `CC(C)c1ccc(CN(CCCCN)Cc2ccccc2)cc1` ?
criterion not met

Is EC50 strictly under 7 µM for the entry `CC(C)(C)c1ccc(COc2ccc(CN(CCCN)Cc3ccc(OCc4ccc(C(C)(C)C)cc4)cc3)cc2)cc1` ?
criterion met

Is EC50 strictly under 7 µM for the entry `COc1ccc(CN(CCCN)Cc2ccccc2)cc1OC.O=C(O)C(F)(F)F` ?
criterion met

Is EC50 strictly under 7 µM for the entry `NCCCN(Cc1ccc(OCc2ccc(Cl)c(Cl)c2)cc1)Cc1ccc(OCc2ccc(Cl)c(Cl)c2)cc1` ?
criterion met

Is EC50 strictly under 7 µM for the entry `COc1ccc(CN(CCCN)Cc2ccc(OC)cc2OC)c(OC)c1.O=C(O)C(F)(F)F` ?
criterion not met

Is EC50 strictly under 7 µM for the entry `NCCCN(Cc1ccc(OCc2ccccc2)cc1)Cc1ccc(OCc2ccccc2)cc1` ?
criterion met

Is EC50 strictly under 7 µM for the entry `NCCCN(Cc1ccccc1)Cc1ccc(Cc2ccc(Br)o2)cc1.O=C(O)C(F)(F)F` ?
criterion met
